- Test system: Escherichia coli
- assayOverview: Inhibition of NDM-1/CMY-6/OXA-1 in Escherichia coli CDC-0055 assessed as cefepime antibacterial activity at 8 ug/ml after 16 to 20 hrs by CLSI-based microbroth dilution method
As shown below, each of these molecules has a reported MIC value.
measuredEndpoint: MIC

{"columns": ["givenSmiles", "testResult"],
 "data": [
  ["O=C(O)C[C@@H]1CC[C@H](NC(=O)Cc2cccs2)B(O)O1", "> 16 µg/mL"],
  ["C[C@]1(Cn2ccnn2)[C@H](C(=O)O)N2C(=O)C[C@H]2S1(=O)=O", "> 16 µg/mL"],
  ["N[C@H]1CC[C@H](CC(=O)N[C@H]2Cc3cccc(C(=O)O)c3OB2O)CC1", "> 16 µg/mL"],
  ["CC(=O)N[C@H]1Cc2cccc(C(=O)O)c2OB1O", "> 16 µg/mL"]
]}

* * *

- Tested on: Klebsiella pneumoniae
- assayOverview: Inhibition of OXA-48 in Klebsiella pneumoniae assessed as meropenem antibacterial activity at 4 ug/ml after 16 to 20 hrs by CLSI-based microbroth dilution method (Rvb >= […] ug/ml)

{"columns": ["givenSmiles", "measurementTarget", "MIC (µg/mL)"],
 "data": [
  ["N[C@H]1CC[C@H](CC(=O)N[C@H]2Cc3cccc(C(=O)O)c3OB2O)CC1", "Klebsiella pneumoniae", 2],
  ["CNCCN[C@H]1CC[C@H](CC(=O)N[C@H]2Cc3cccc(C(=O)O)c3OB2O)CC1", "Klebsiella pneumoniae", 2],
  ["NCCCN[C@H]1CC[C@H](CC(=O)N[C@H]2Cc3cccc(C(=O)O)c3OB2O)CC1", "Klebsiella pneumoniae", 8],
  ["CS(=O)(=O)NCCN[C@H]1CC[C@H](CC(=O)N[C@H]2Cc3cccc(C(=O)O)c3OB2O)CC1", "Klebsiella pneumoniae", 8],
  ["N=C(N)NCCN[C@H]1CC[C@H](CC(=O)N[C@H]2Cc3cccc(C(=O)O)c3OB2O)CC1", "Klebsiella pneumoniae", 2],
  ["N[C@H]1CC[C@@H](CC(=O)N[C@H]2Cc3cccc(C(=O)O)c3OB2O)CC1", "Klebsiella pneumoniae", 16],
  ["O=C(C[C@H]1CC[C@H](NCCO)CC1)N[C@H]1Cc2cccc(C(=O)O)c2OB1O", "Klebsiella pneumoniae", 2]
]}

Sourced from ChEMBL document CHEMBL4354828
